- tested-on: SHP2 protein (Homo sapiens)
- assay-method-text: Measurement of SHP2 protein degradation in MV-4-11 cells (western blotting)
- Assay type: cell-based
- Set-up: endogenous in cells; host or cells: MV-4-11
- condition-details: MV-4-11 cells, 10 nM, 24 hours
measurement-kind: SHP2 degradation (%) 10 nM

[a] Cc1ncsc1-c1ccc(CNC(=O)[C@@H]2C[C@@H](O)CN2C(=O)[C@@H](NC(=O)C2(F)CC2)C(C)(C)C)c(OCC2CCN(C(=O)C3(C(=O)Nc4cccc(Sc5cnc(N6CCC(C)(CN)CC6)cn5)c4Cl)CC3)CC2)c1 [Example 46]
[b] Cc1ncsc1-c1ccc(CNC(=O)[C@@H]2C[C@@H](O)CN2C(=O)[C@@H](NC(=O)C2(F)CC2)C(C)(C)C)c(OCCNC(=O)c2cnc(N3CCC(CCCC(=O)Nc4cccc(Sc5cnc(N6CCC(C)(CN)CC6)cn5)c4Cl)CC3)nc2)c1 [Example 89]
[c] Cc1ncsc1-c1ccc(CNC(=O)[C@@H]2C[C@@H](O)CN2C(=O)[C@@H](NC(=O)C2(F)CC2)C(C)(C)C)c(OCCCN2CCN(C(=O)CC(=O)Nc3cccc(Sc4cnc(N5CCC(C)(CN)CC5)cn4)c3Cl)[C@@H](C)C2)c1 [Example 64]
[d] CC(=O)N[C@H](C(=O)N1C[C@H](O)C[C@H]1C(=O)NCc1ccc(-c2scnc2C)cc1OCCC1CCN(C(=O)CC(=O)Nc2cccc(Sc3cnc(N4CCC(C)(CN)CC4)cn3)c2Cl)CC1)C(C)(C)C [Example 38]
[e] Cc1ncsc1-c1ccc(CNC(=O)[C@@H]2C[C@@H](O)CN2C(=O)[C@@H](NC(=O)C2(F)CC2)C(C)(C)C)c(OCCCN2CCN(CC(=O)Nc3cccc(Sc4cnc(N5CCC(C)(CN)CC5)cn4)c3Cl)CC2)c1 [Example 73]
Ask: Order these compounds (above) by their SHP2 degradation (%) 10 nM, from the smallest value upward. Give the labels in the order specified.
Reply: a, b, e, c, d

[P] Cc1ncsc1-c1ccc(CNC(=O)[C@@H]2C[C@@H](O)CN2C(=O)[C@@H](NC(=O)C2(F)CC2)C(C)(C)C)c(OCCC2CCN(C(=O)CC(=O)Nc3cccc(Sc4ncc(N5CCC(C)(N)CC5)nc4N)c3Cl)CC2)c1 [Example 35]
[Q] Cc1ncsc1-c1ccc(CNC(=O)[C@@H]2C[C@@H](O)CN2C(=O)[C@@H](NC(=O)C2(F)CC2)C(C)(C)C)c(OC2CC3(CCN(c4ccc(C(=O)Nc5cccc(Sc6cnc(N7CCC(C)(CN)CC7)cn6)c5Cl)nn4)CC3)C2)c1 [Example 88]
Ask: Choose between P and Q : whose measured SHP2 degradation (%) 10 nM value is numerically larger? Returns: label corresponding to the selected item.
Reply: P
(P: 74%, Q: 16.5%)

[I] Cc1ncsc1-c1ccc(CNC(=O)[C@@H]2C[C@@H](O)CN2C(=O)[C@@H](NC(=O)C2(F)CC2)C(C)(C)C)c(OCCC2CCN(CCC(=O)Nc3cccc(Sc4cnc(N5CCC(C)(CN)CC5)cn4)c3Cl)CC2)c1 [Example 74]
[II] Cc1ncsc1-c1ccc(CNC(=O)[C@@H]2C[C@@H](O)CN2C(=O)[C@@H](NC(=O)C2(F)CC2)C(C)(C)C)c(OCC2CCN(C(=O)CC(=O)Nc3cccc(Sc4cnc(N5CCC(C)(CN)CC5)cn4)c3Cl)CC2)c1 [Example 31]
Ask: Which value of SHP2 degradation (%) 10 nM is smaller, the one for I or the one for II ? Returns: label corresponding to the selected item.
Reply: I

###

- tested-on: SHP2 protein (Homo sapiens)
- assay-method-text: Measurement of SHP2 protein degradation in MV-4-11 cells (western blotting)
- Type: cell-based
- Design: endogenous in cells; host or cells: MV-4-11
- condition-details: MV-4-11 cells, 10 nM, 24 hours
measurement-kind: SHP2 degradation (%) 10 nM

Cc1ncsc1-c1ccc(CNC(=O)[C@@H]2C[C@@H](O)CN2C(=O)[C@@H](NC(=O)C2(F)CC2)C(C)(C)C)c(OCC2CCN(C(=O)CCC(=O)Nc3cccc(Sc4cnc(N5CCC(C)(CN)CC5)cn4)c3Cl)CC2)c1 : 71.5

[P] Cc1ncsc1-c1ccc(CNC(=O)[C@@H]2C[C@@H](O)CN2C(=O)[C@@H](NC(=O)C2(F)CC2)C(C)(C)C)c(OCCN2CCN(C(=O)C(C)C(=O)Nc3cccc(Sc4cnc(N5CCC(C)(CN)CC5)cn4)c3Cl)CC2)c1 (stereo partly shown)
[Q] Cc1ncsc1-c1ccc(CNC(=O)[C@@H]2C[C@@H](O)CN2C(=O)[C@@H](NC(=O)C2(F)CC2)C(C)(C)C)c(OCCN2CCN(c3ncc(C(=O)Nc4cccc(Sc5cnc(N6CCC(C)(CN)CC6)cn5)c4Cl)cn3)CC2)c1
Ask: Choose between P and Q : whose measured SHP2 degradation (%) 10 nM value is numerically larger? Returns: label corresponding to the selected item.
Reply: P
(P: 90.0%, Q: 48.7%)

###

- tested-on: SHP2 protein (Homo sapiens)
- assay-method-text: Measurement of SHP2 protein degradation in KYSE-520 cells (western blotting)
- Type: cell-based
- Parameters: endogenous in cells
- condition-details: 10 nM, 24 hours
measurement-kind: SHP2 degradation (%) 10 nM

Cc1ncsc1-c1ccc(CNC(=O)[C@@H]2C[C@@H](O)CN2C(=O)[C@@H](NC(=O)C2(F)CC2)C(C)(C)C)c(OCCCCCCCCN2CCC(C(=O)Nc3cccc(Sc4cnc(N5CCC(C)(CN)CC5)cn4)c3Cl)CC2)c1 [Example 4] : 4.1

[I] Cc1ncsc1-c1ccc(CNC(=O)[C@@H]2C[C@@H](O)CN2C(=O)[C@@H](NC(=O)C2(F)CC2)C(C)(C)C)c(OCCCC(=O)N2CCC(C(=O)Nc3cccc(Sc4cnc(N5CCC(C)(CN)CC5)cn4)c3Cl)CC2)c1 [Example 21]
[II] Cc1ncsc1-c1ccc(CNC(=O)[C@@H]2C[C@@H](O)CN2C(=O)[C@@H](NC(=O)C2(F)CC2)C(C)(C)C)c(OCCCCN2CCC(C(=O)Nc3cccc(Sc4cnc(N5CCC(C)(CN)CC5)cn4)c3Cl)CC2)c1 [Example 2]
Ask: Choose between I and II : whose measured SHP2 degradation (%) 10 nM value is numerically larger? Returns: label corresponding to the selected item.
Reply: II
(II: 23.3%, I: 11.7%)

###

- tested-on: UniProtKB Q06124
- assay-method-text: Measurement of SHP2 protein degradation in KYSE-520 cells (western blotting)
- Assay type: cell-based
- Set-up: endogenous in cells
- condition-details: 100 nM, 24 hours
measurement-kind: SHP2 degradation (%) 100 nM

Worked set:
Cc1ncsc1-c1ccc(CNC(=O)[C@@H]2C[C@@H](O)CN2C(=O)[C@@H](NC(=O)C2(F)CC2)C(C)(C)C)c(OCCN2CCC(CCC(=O)Nc3cccc(Sc4cnc(N5CCC(C)(CN)CC5)cn4)c3Cl)CC2)c1 : 49.6
Cc1ncsc1-c1ccc(CNC(=O)[C@@H]2C[C@@H](O)CN2C(=O)[C@@H](NC(=O)C2(F)CC2)C(C)(C)C)c(OCCCCN2CCC(C(=O)Nc3cccc(Sc4cnc(N5CCC(C)(CN)CC5)cn4)c3Cl)CC2)c1 : 81.8
Cc1ncsc1-c1ccc(CNC(=O)[C@@H]2C[C@@H](O)CN2C(=O)[C@@H](NC(=O)C2(F)CC2)C(C)(C)C)c(OCCCN2CCC(CCC(=O)Nc3cccc(Sc4cnc(N5CCC(C)(CN)CC5)cn4)c3Cl)CC2)c1 : 60.1
Cc1ncsc1-c1ccc(CNC(=O)[C@@H]2C[C@@H](O)CN2C(=O)[C@@H](NC(=O)C2(F)CC2)C(C)(C)C)c(OCCCCN2CCC(CCCC(=O)Nc3cccc(Sc4cnc(N5CCC(C)(CN)CC5)cn4)c3Cl)CC2)c1 : 71.8

[I] Cc1ncsc1-c1ccc(CNC(=O)[C@@H]2C[C@@H](O)CN2C(=O)[C@@H](NC(=O)C2(F)CC2)C(C)(C)C)c(OCCCCN2CCC(CC(=O)Nc3cccc(Sc4cnc(N5CCC(C)(CN)CC5)cn4)c3Cl)CC2)c1
[II] Cc1ncsc1-c1ccc(CNC(=O)[C@@H]2C[C@@H](O)CN2C(=O)[C@@H](NC(=O)C2(F)CC2)C(C)(C)C)c(OCCCC(=O)N2CCC(CCC(=O)Nc3cccc(Sc4cnc(N5CCC(C)(CN)CC5)cn4)c3Cl)CC2)c1
Ask: Which value of SHP2 degradation (%) 100 nM is smaller, the one for I or the one for II ? Returns: label corresponding to the selected item.
Reply: II
(II: 52.1%, I: 75.2%)

###

- tested-on: SHP2 protein (Homo sapiens, UniProt Q06124)
- assay-method-text: Measurement of SHP2 protein degradation in MV-4-11 cells (western blotting)
- Type: cell-based
- Set-up: endogenous in cells; host or cells: MV-4-11
- condition-details: MV-4-11 cells, 1000 nM, 24 hours
measurement-kind: SHP2 degradation (%) 1000 nM

Cc1ncsc1-c1ccc(CNC(=O)[C@@H]2C[C@@H](O)CN2C(=O)[C@@H](NC(=O)C2(F)CC2)C(C)(C)C)c(OCCCC2CCN(C(=O)CC(=O)Nc3cccc(Sc4cnc(N5CCC(C)(CN)CC5)cn4)c3Cl)CC2)c1 : 91.5
CC(=O)N[C@H](C(=O)N1C[C@H](O)C[C@H]1C(=O)NCc1ccc(-c2scnc2C)cc1OCCCN1CCC(CC(=O)Nc2cccc(Sc3cnc(N4CCC(C)(CN)CC4)cn3)c2Cl)CC1)C(C)(C)C : 93.3
Cc1ncsc1-c1ccc(CNC(=O)[C@@H]2C[C@@H](O)CN2C(=O)[C@@H](NC(=O)C2(F)CC2)C(C)(C)C)c(OCCCN2CCC(CC(=O)Nc3cccc(Sc4cnc(N5CCC(C)(N)CC5)cn4)c3Cl)CC2)c1 : 96.5
